- protocolSummary: Equilibrium solubility in aqueous solutions containing different concentrations of Captisol
- Type: physicochemical
- details: aqueous solution containing Captisol, 20 °C, pH 7.2, aqueous with cosolvent or surfactant or cyclodextrin, thermodynamic from solid, Captisol 20 % w/v; pH 7.2 phosphate buffered; free form equivalent; 20° C.; read-out: Solubility of Compound I free base at pH 7.2 (phosphate buffered)
resultType: solubility
Please state the value followed by its unit.

Requested read-out: solubility. Entry: C[C@@H](OC[C@@]1(c2ccccc2)CC[C@]2(CCC(=O)N2)CN1)c1cc(C(F)(F)F)cc(C(F)(F)F)c1 [Compound I free base] 610 µg/mL

---

- protocolSummary: Equilibrium solubility in aqueous solutions containing different concentrations of Captisol
- Format: physicochemical
- details: aqueous solution containing Captisol, 20 °C, pH 7.2, aqueous with cosolvent or surfactant or cyclodextrin, thermodynamic from solid, Captisol 5 % w/v; pH 7.2 phosphate buffered; free form equivalent; 20° C.; read-out: Solubility of Compound I free base at pH 7.2 (phosphate buffered)
resultType: solubility
Form entry: enter the amount, then its unit.

Suppose we examine the compound C[C@@H](OC[C@@]1(c2ccccc2)CC[C@]2(CCC(=O)N2)CN1)c1cc(C(F)(F)F)cc(C(F)(F)F)c1 [Compound I free base] ; what solubility value has been reported? 150 µg/mL
